Values compiled from patent US7196192B2.

System: murine splenocyte
Assay: murine splenocyte assay for immunosuppressive activity
Format: cell-based
Conditions: mouse splenocyte assay, methods of Example 2.5; read-out: Splenocyte IC50
pIC50: −log10 of the molar value.

compound	pIC50
CO[C@@H]1C[C@H](C[C@@H](C)[C@@H]2CC(=O)[C@H](C)/C=C(\C)[C@H](O)[C@@H](OC)C(=O)[C@H](C)C[C@H](C)/C=C/C=C/C=C(\C)[C@@H](NS(=O)(=O)N(C)c3ccccc3)C[C@@H]3CC[C@@H](C)[C@@](O)(O3)C(=O)C(=O)N3CCCC[C@H]3C(=O)O2)CC[C@H]1O [28-epi-7S-methylphenylsulfamide]	6.25

* * *

Target: transcriptional switch components containing FKBP and 2098L mutant FRB domains (Homo sapiens, UniProt P42345+P62942)
Construct: transcriptional switchcomponents containing FKBP and 2098L mutant FRB domains, respectively; fused on or other part: The two switch components are separate chimeric proteins; Neither is given for this cell line
Sequence (P62942 2-108 limits assumed, stated change not applied, other chains not shown): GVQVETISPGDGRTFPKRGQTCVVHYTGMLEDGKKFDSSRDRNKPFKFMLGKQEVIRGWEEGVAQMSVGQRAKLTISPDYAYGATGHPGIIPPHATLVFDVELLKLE
Assay: transcription assay in engineered HD1080 cells expressing SEAP (txn 2098L)
Type: cell-based
Conditions: cellular transcription assay, methods of Example 2.5; read-out: TXN 2098L EC50
Protocol: The ability of the rapalogs to multimerize chimeric proteins may be measured in cell-based assays by measuring the occurrence of an event triggered by such multimerization. […] A rapalog is added to the culture medium and after a suitable incubation period (to permit gene expression and secretion, e.g. several hours or overnight) the presence of the reporter gene product is measured. […]
Reported EC50 values are given for each entry in this list.

molecule	EC50
COc1ccccc1COC1CC2CCC(C)C(O)(O2)C(=O)C(=O)N2CCCCC2C(=O)OC(C(C)CC2CCC(O)C(OC)C2)CC(=O)C(C)C=C(C)C(O)C(OC)C(=O)C(C)CC(C)C=CC=CC=C1C (single isomer, unassigned) [28-epi-7R-2′-methoxybenzyloxy]	24 nM
CO[C@@H]1C[C@H](C[C@@H](C)[C@@H]2CC(=O)[C@H](C)/C=C(\C)[C@H](O)[C@@H](OC)C(=O)[C@H](C)C[C@H](C)/C=C/C=C/C=C(\C)[C@H](N(C)C(=O)OCc3ccccc3)C[C@@H]3CC[C@@H](C)[C@@](O)(O3)C(=O)C(=O)N3CCCC[C@H]3C(=O)O2)CC[C@H]1O [28-epi-7R-N-Me-benzylcarbamate]	8 nM

* * *

Molecular target: FKBP (Homo sapiens)
Sequence (P62942 whole entry): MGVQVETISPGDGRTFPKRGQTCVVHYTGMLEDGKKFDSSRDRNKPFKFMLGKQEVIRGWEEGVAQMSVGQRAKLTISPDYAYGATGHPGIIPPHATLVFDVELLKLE
Experiment: FKBP competitive binding assay based on fluorescence polarization (FP)
Settings: competitive FP binding, fluorescein-labelled FK506 probe (AP1491); read-out: FKBP binding IC50
IC50 values by entry
outcomeMeasure: IC50 (nM)

molecule	testTarget	assayValue
C=CCO[C@@H]1CC[C@@H](C[C@@H](C)[C@@H]2CC(=O)[C@H](C)/C=C(\C)[C@H](O)[C@@H](OC)C(=O)[C@H](C)C[C@H](C)/C=C/C=C/C=C(\C)[C@@H](OC)C[C@@H]3CC[C@@H](C)[C@@](O)(O3)C(=O)C(=O)N3CCCC[C@H]3C(=O)O2)C[C@H]1OC [43-O-allyl-28-epirapamycin]	FKBP (Homo sapiens)	65
CO[C@H]1C[C@@H]2CC[C@@H](C)[C@@](O)(O2)C(=O)C(=O)N2CCCC[C@H]2C(=O)O[C@H]([C@H](C)C[C@@H]2CC[C@@H](OCc3ccccc3)[C@H](OC)C2)CC(=O)[C@H](C)/C=C(\C)[C@H](O)[C@@H](OC)C(=O)[C@H](C)C[C@H](C)/C=C/C=C/C=C/1C [43-O-benzyl-28-epirapamycin]	FKBP (Homo sapiens)	63
CO[C@H]1C[C@@H]2CC[C@@H](C)[C@@](O)(O2)C(=O)C(=O)N2CCCC[C@H]2C(=O)O[C@H]([C@H](C)C[C@@H]2CC[C@@H](OC)[C@H](OC)C2)CC(=O)[C@H](C)/C=C(\C)[C@H](O)[C@@H](OC)C(=O)[C@H](C)C[C@H](C)/C=C/C=C/C=C/1C [43-O-methyl-28-epirapamycin]	FKBP (Homo sapiens)	34
COCO[C@@H]1CC[C@@H](C[C@@H](C)[C@@H]2CC(=O)[C@H](C)/C=C(\C)[C@H](O)[C@@H](OC)C(=O)[C@H](C)C[C@H](C)/C=C/C=C/C=C(\C)[C@@H](OC)C[C@@H]3CC[C@@H](C)[C@@](O)(O3)C(=O)C(=O)N3CCCC[C@H]3C(=O)O2)C[C@H]1OC [43-O-MOM-28-epirapamycin]	FKBP (Homo sapiens)	27
